Source of measurements: patent US10287267B2

# TEST TARGET: recombinant GSK3β kinase (Homo sapiens (Human))
# Sequence (P49841 whole entry): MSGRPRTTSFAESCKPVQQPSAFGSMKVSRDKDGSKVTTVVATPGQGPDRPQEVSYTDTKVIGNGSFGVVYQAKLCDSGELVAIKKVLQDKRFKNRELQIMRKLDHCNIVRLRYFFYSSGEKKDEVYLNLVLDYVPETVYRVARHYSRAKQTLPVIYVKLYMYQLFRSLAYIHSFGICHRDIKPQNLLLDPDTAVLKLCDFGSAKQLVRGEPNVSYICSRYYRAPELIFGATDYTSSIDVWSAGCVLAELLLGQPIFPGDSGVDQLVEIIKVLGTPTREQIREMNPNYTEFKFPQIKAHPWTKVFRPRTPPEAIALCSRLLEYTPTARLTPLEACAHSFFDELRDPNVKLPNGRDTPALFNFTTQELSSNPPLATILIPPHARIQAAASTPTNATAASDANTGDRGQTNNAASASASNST
# EXPERIMENT DESCRIPTION: GSK3β kinase assay (Ser/Thr 09 peptide Z-lyte FRET);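 also: kinase activity read as coumarin to fluorescein emission ratio, 11-point threefold dilutions from 10 µM to 0.0003 µM in duplicate, unphosphorylated and phosphorylated peptide as 0% and 100% controls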
# ASSAY SETUP: 46 μM ATP, 1 h room temperature
Below, each entry is listed alongside its reported EC50.
PROPERTY MEASURED: EC50 (nM)

[[record]]
compound = "CN1CCC(C(=O)Nc2cc3cc(-c4cnn(C)c4)ccc3cn2)CC1"
property_measured = "EC50"
endpoint_unit = "nM"
observed_measurement = 49

[[record]]
compound = "Cn1nccc1-c1ccc2cnc(NC(=O)C3CCN(CCC(F)(F)F)CC3)cc2c1"
property_measured = "EC50"
endpoint_unit = "nM"
observed_measurement = 5310

[[record]]
compound = "[2H]C([2H])([2H])N1CCN(CC(=O)Nc2cc3cc(-c4cnn(C)c4)ccc3cn2)CC1"
property_measured = "EC50"
endpoint_unit = "nM"
observed_measurement = 79

[[record]]
compound = "Cc1ncc(-c2ccc3cnc(NC(=O)CN4CCOCC4)cc3c2)o1"
property_measured = "EC50"
endpoint_unit = "nM"
observed_measurement = 67

[[record]]
compound = "COC(=O)CN1CCC(C(=O)Nc2cc3cc(-c4cnn(C)c4)ccc3cn2)CC1"
property_measured = "EC50"
endpoint_unit = "nM"
observed_measurement = 47

[[record]]
compound = "Cn1ncc(-c2ccc3cnc(NC(=O)C4CC5(C4)CN(C(=O)OC(C)(C)C)C5)cc3c2)c1CN1CCCCC1"
property_measured = "EC50"
endpoint_unit = "nM"
observed_measurement = 14

[[record]]
compound = "Cn1cc(-c2ccc3cnc(NC(=O)C4CCOCC4)cc3c2)cn1"
property_measured = "EC50"
endpoint_unit = "nM"
observed_measurement = 32

[[record]]
compound = "CN(CC(=O)Nc1cc2cc(-c3cnn(C)c3)ccc2cn1)C1CCC1"
property_measured = "EC50"
endpoint_unit = "nM"
observed_measurement = 38

[[record]]
compound = "Cn1cc(-c2ccc3cnc(NC(=O)C4CC4)c(Cl)c3c2)cn1"
property_measured = "EC50"
endpoint_unit = "nM"
observed_measurement = 3120

[[record]]
compound = "Cn1cc(-c2ccc3cnc(NC(=O)CN4CCC(C(F)(F)F)CC4)cc3c2)cn1"
property_measured = "EC50"
endpoint_unit = "nM"
observed_measurement = 41

[[record]]
compound = "Cn1cc(-c2ccc3cnc(NC(=O)CN4CCOCC4)cc3c2)cn1"
property_measured = "EC50"
endpoint_unit = "nM"
observed_measurement = 67

[[record]]
compound = "Cc1ncc(-c2ccc3cnc(NC(=O)C4CCC(F)(F)CC4)cc3c2)n1C"
property_measured = "EC50"
endpoint_unit = "nM"
observed_measurement = 53

[[record]]
compound = "Cn1cncc1-c1ccc2cnc(NC(=O)C3CCN(CCC(F)(F)F)CC3)cc2c1"
property_measured = "EC50"
endpoint_unit = "nM"
observed_measurement = 24

[[record]]
compound = "Cc1ncc(-c2ccc3cnc(NC(=O)[C@H]4CC[C@H](N(C)C)CC4)cc3c2)o1 [Compound 1082]"
property_measured = "EC50"
endpoint_unit = "nM"
observed_measurement = 210

[[record]]
compound = "CN1CCC(C(=O)Nc2cc3cc(-c4cnn(C)c4CO)ccc3cn2)CC1"
property_measured = "EC50"
endpoint_unit = "nM"
observed_measurement = 283

[[record]]
compound = "Cn1cc(-c2ccc3cnc(NC(=O)N4CN5CCC[C@@H]5C4=O)cc3c2)cn1"
property_measured = "EC50"
endpoint_unit = "nM"
observed_measurement = 1100

[[record]]
compound = "Cn1cc(-c2cc(F)c3cnc(NC(=O)C4CCN(CCF)CC4)cc3c2)cn1"
property_measured = "EC50"
endpoint_unit = "nM"
observed_measurement = 51

[[record]]
compound = "CC(C(=O)Nc1cc2cc(-c3cncs3)ccc2cn1)N1CCCC1 (stereo not drawn)"
property_measured = "EC50"
endpoint_unit = "nM"
observed_measurement = 50

